Test system: HT-1080-FAP tumor xenografts
Experiment: Dynamic small-animal PET, two-tissue compartment model, HT-1080-FAP xenografts
Format: in vivo, mouse
Conditions: 68Ga-FAPI-02, HT-1080-FAP, − comp.
ENDPOINT LABEL: k2 (min⁻¹)
Give bare numbers, in min⁻¹.

Entry N#C[C@@H]1CCCN1C(=O)CNC(=O)c1ccnc2ccc(OCCCN3CCN(C(=O)CN4CCN(CC(=O)O)CCN(CC(=O)O)CCN(CC(=O)O)CC4)CC3)cc12 : k2 on HT-1080-FAP tumor xenografts = 0.13

---

System: HT-1080-FAP tumor xenografts
Assay: Dynamic small-animal PET, two-tissue compartment model, HT-1080-FAP xenografts
Assay type: in vivo, mouse
Settings: 68Ga-FAPI-02, HT-1080-FAP, − comp.
ENDPOINT LABEL: k3 (min⁻¹)
Give bare numbers, in min⁻¹.

Record N#C[C@@H]1CCCN1C(=O)CNC(=O)c1ccnc2ccc(OCCCN3CCN(C(=O)CN4CCN(CC(=O)O)CCN(CC(=O)O)CCN(CC(=O)O)CC4)CC3)cc12 [FAPI-02] . Reported k3: 0.1

Ref: patent US20250127937A1
